# protocol.text: Tissue distribution after single gavage in C57BL/6 mice (LC-MS)
# Format: in vivo
# recorded.conditions: C57BL/6, mouse, pancreas, oral, six hours after gavage with 1 μmole; read-out: concentration in the pancreas
measured.metric: concentration at 6 h

### Prompt Any idea what its concentration at 6 h is? The compound is CC1(C)CCC2(C(=O)n3ccnc3)CCC3(C)C(C(=O)C=C4C5(C)C=C(C#N)C(=O)C(C)(C)C5CCC43C)C2C1 (stereo not shown) [CDDO-Im 1, reference compound]
### Response ~300 nM

---

Readings of Compound Concentration Mean ± SE, Whole Blood for the listed compounds
# protocol.text: Tissue distribution after single gavage in C57BL/6 mice (LC-MS)
# Format: in vivo
# recorded.conditions: six hours after single gavage with 1 μmole
# Protocol: To determine concentrations of the CDDO-Im analogs in various organs, an in vivo evaluation was conducted in C57BL/6 mice. Six hours after a single gavage with 1 μmole of compound, the mice were sacrificed and the tissues were collected.
Respond with the bare value in µmol/kg.

Answered examples (3):
INSERT INTO measurements (compound, quantitative_readout) VALUES
  ('CC1(C)CCC2(C(=O)n3ccnc3)CCC3(C)C(C(=O)C=C4C5(C)C=C(C#N)C(=O)C(C)(C)C5CCC43C)C2C1 (centres unmarked) [CDDO-Im 1, reference compound]', 0.03),
  ('CC1(C)CCC2(C(=O)n3cnc(-c4ccccn4)c3)CCC3(C)C(C(=O)C=C4C5(C)C=C(C#N)C(=O)C(C)(C)C5CCC43C)C2C1 (centres unmarked) [CDDO-2P-Im 4]', 0.53),
  ('CC1(C)CCC2(C(=O)n3cnc(-c4cccnc4)c3)CCC3(C)C(C(=O)C=C4C5(C)C=C(C#N)C(=O)C(C)(C)C5CCC43C)C2C1 (centres unmarked) [CDDO-3P-Im 3]', 0.16);

### Prompt Given CC1(C)CCC2(C(=O)n3cnc(-c4ccncc4)c3)CCC3(C)C(C(=O)C=C4C5(C)C=C(C#N)C(=O)C(C)(C)C5CCC43C)C2C1 (centres unmarked) [CDDO-4P-Im 5] , state its recorded Compound Concentration Mean ± SE, Whole Blood.
### Response 0.04

### Prompt Item CC1(C)CCC2(C(=O)n3cnc(-c4ccccc4)c3)CCC3(C)C(C(=O)C=C4C5(C)C=C(C#N)C(=O)C(C)(C)C5CCC43C)C2C1 (centres unmarked) [CDDO-Phenyl-Im 2] has what recorded Compound Concentration Mean ± SE, Whole Blood?
### Response 0.35

---

# protocol.text: Tissue distribution after single gavage in C57BL/6 mice (LC-MS)
# Type: in vivo
# recorded.conditions: six hours after single gavage with 1 μmole
Overview of reported Compound Concentration Mean ± SE, Kidney across a group of molecules:
Return type: number; implicit unit µmol/kg.

Previously resolved entries follow.
INSERT INTO assay_data (molecule, measured_metric, quantitative_readout) VALUES
  ('CC1(C)CCC2(C(=O)n3cnc(-c4ccncc4)c3)CCC3(C)C(C(=O)C=C4C5(C)C=C(C#N)C(=O)C(C)(C)C5CCC43C)C2C1 (centres unmarked)', 'Compound Concentration Mean ± SE, Kidney', 0.35),
  ('CC1(C)CCC2(C(=O)n3cnc(-c4ccccn4)c3)CCC3(C)C(C(=O)C=C4C5(C)C=C(C#N)C(=O)C(C)(C)C5CCC43C)C2C1 (centres unmarked)', 'Compound Concentration Mean ± SE, Kidney', 3.70),
  ('CC1(C)CCC2(C(=O)n3cnc(-c4cccnc4)c3)CCC3(C)C(C(=O)C=C4C5(C)C=C(C#N)C(=O)C(C)(C)C5CCC43C)C2C1 (centres unmarked)', 'Compound Concentration Mean ± SE, Kidney', 1.47),
  ('CC1(C)CCC2(C(=O)n3cnc(-c4ccccc4)c3)CCC3(C)C(C(=O)C=C4C5(C)C=C(C#N)C(=O)C(C)(C)C5CCC43C)C2C1 (centres unmarked)', 'Compound Concentration Mean ± SE, Kidney', 5.79);

# input for lookup
### Prompt # input molecule: CC1(C)CCC2(C(=O)n3ccnc3)CCC3(C)C(C(=O)C=C4C5(C)C=C(C#N)C(=O)C(C)(C)C5CCC43C)C2C1 (centres unmarked) [CDDO-Im 1, reference compound] ; wanted: its Compound Concentration Mean ± SE, Kidney
### Response 0.24

Attribution: patent US10189791B2
